Hey, just so you know, these numbers are from ChEMBL document CHEMBL2429758.

Assign fold change (FC) to each entry below.
tested system: Nuclear factor erythroid 2-related factor 2 (Homo sapiens)
protocol summary: Induction of Nrf2-mediated ARE activity in human HepG2-ARE-C8 cells at 1 uM after 12 hrs by luciferase reporter gene assay relative to control
Assay type: cell-based
Numbers only.

[[record]]
compound = "O=C(/C=C1\\NCC2c3ccccc3CCN2C1=O)c1cc(F)cc(F)c1 (stereo not given)"
test_result = 4.75

[[record]]
compound = "O=C(/C=C1\\NCC2c3ccccc3CCN2C1=O)c1ccc(F)c(F)c1 (stereo not given)"
test_result = 3.23

[[record]]
compound = "O=C(/C=C1\\NCC2c3ccccc3CCN2C1=O)c1ccc(F)cc1 (stereo not given)"
test_result = 8

[[record]]
compound = "COc1cc2c(cc1OC)C1CN/C(=C\\C(=O)c3cccc(Cl)c3)C(=O)N1CC2 (stereo not given)"
test_result = 1.07


Supply fold change (FC) value. Item: O=C(/C=C1\NCC2c3ccccc3CCN2C1=O)c1cccc(C(F)(F)F)c1 (stereo not given)
1.76
